Source listed as paper PMC6426982.

Target: human PHGDH (wild type) (Homo sapiens)
Construct: peptides including 12 out of the 13 Cys residues of the full length PHGDH could be identified and tracked; made in house; host or cells: Escherichia coli BL21
Test: PHGDH isolated enzyme inhibition assay (NADH fluorescence), wild type
Format: biochemical
Details: without Triton X, Fig. S1A; read-out: IC50 on PHGDH WT
ASSAY_ENDPOINT: pIC50
Convention used: pIC50 is expressed as -log10 of the molar concentration.

Data request: Find pIC50 (human PHGDH (wild type) (Homo sapiens)) for the entry CCN(CC)C(=S)SSC(=S)N(CC)CC [DSF, bis(diethylthiocarbamoyl) disulfide]
Data returned: 6.28

---

Target: human PHGDH (wild type) (Homo sapiens, UniProt O43175)
Construct: peptides including 12 out of the 13 Cys residues of the full length PHGDH could be identified and tracked; made in house; host or cells: Escherichia coli BL21
Sequence (O43175 1-533): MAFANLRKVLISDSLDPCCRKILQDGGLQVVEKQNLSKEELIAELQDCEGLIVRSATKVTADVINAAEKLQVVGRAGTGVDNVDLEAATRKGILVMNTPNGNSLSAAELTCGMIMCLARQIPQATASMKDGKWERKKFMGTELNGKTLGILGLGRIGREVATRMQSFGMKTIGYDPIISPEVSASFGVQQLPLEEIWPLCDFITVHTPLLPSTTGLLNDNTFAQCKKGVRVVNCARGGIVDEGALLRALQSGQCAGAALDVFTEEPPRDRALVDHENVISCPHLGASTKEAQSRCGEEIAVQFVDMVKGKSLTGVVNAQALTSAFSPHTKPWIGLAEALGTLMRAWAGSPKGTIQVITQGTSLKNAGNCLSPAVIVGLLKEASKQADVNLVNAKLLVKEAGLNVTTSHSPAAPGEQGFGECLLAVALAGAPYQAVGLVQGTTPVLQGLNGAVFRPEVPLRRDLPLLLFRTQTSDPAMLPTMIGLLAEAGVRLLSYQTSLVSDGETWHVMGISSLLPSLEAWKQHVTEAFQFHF
Experiment: PHGDH isolated enzyme inhibition assay (NADH fluorescence), wild type
Assay type: biochemical
Settings: with Triton X 0.01%, Fig. S1B; read-out: IC50 on PHGDH WT
ASSAY_ENDPOINT: IC50 (nM)
Reply numerically in nM, unit not repeated.

Data request: IC50 for CCN(CC)C(=S)SSC(=S)N(CC)CC [DSF, bis(diethylthiocarbamoyl) disulfide] ?
Data returned: 490
